Test system: SARS-CoV-2 "NRC-03-nhCoV" virus
assayProtocol: Inhibitory concentration 50 (IC50) determination, virus-induced cytopathic effect in Vero-E6 cells, crystal violet
Assay type: cell-based
experimentalSetup: Severe acute respiratory syndrome coronavirus 2, Vero C1008, 72 h, NRC-03-nhCoV in Vero E6, 72 h, reduction of CPE by 50%; read-out: IC50
measuredProperty: pIC50
Entry type: numeric. Quantity: pIC50, the -log10 of concentration in molar units.

A selection of reference data follows.
COc1ccc(-n2cc(COC(=O)[C@]34CCC(C)(C)CC3C3=CCC5[C@@]6(C)C[C@@H](OCc7cn(-c8ccc(OC)cc8)nn7)[C@H](OCc7cn(-c8ccc(OC)cc8)nn7)C(C)(C)C6CC[C@@]5(C)[C@]3(C)CC4)nn2)cc1 (some centres unmarked) | 3.86
CC1(C)CC[C@]2(C(=O)OCc3cn(-c4ccc(Cl)cc4)nn3)CC[C@]3(C)C(=CCC4[C@@]5(C)C[C@@H](OCc6cn(-c7ccc(Cl)cc7)nn6)[C@H](O)C(C)(C)C5CC[C@]43C)C2C1 (some centres unmarked) | 3.94
CC1(C)CC[C@]2(C(=O)OCc3cn(-c4ccccc4)nn3)CC[C@]3(C)C(=CCC4[C@@]5(C)C[C@@H](O)[C@H](O)C(C)(C)C5CC[C@]43C)C2C1 (some centres unmarked) | 3.87
C#CCOC(=O)[C@]12CCC(C)(C)CC1C1=CCC3[C@@]4(C)C[C@@H](OCC#C)[C@H](OCC#C)C(C)(C)C4CC[C@@]3(C)[C@]1(C)CC2 (some centres unmarked) | 3.97

Would you kindly look at the next entry?
// query For the compound C#CCOC(=O)[C@]12CCC(C)(C)CC1C1=CCC3[C@@]4(C)C[C@@H](OCC#C)[C@H](O)C(C)(C)C4CC[C@@]3(C)[C@]1(C)CC2 (some centres unmarked) , report pIC50.
// result 4.07
